# assay-remarks: Cytotoxicity against Macaca mulatta (Rhesus monkey) MA104 cells
# Type: cell-based
observable: pIC50
# pIC50 = -log10(concentration in molar units)

Sure, the documented pIC50 for O=C1NC(c2c[nH]c3ccc(O)cc23)=C/C1=C1\C(=O)Nc2ccccc21 [VIOLACEIN] is 5.66

---

# Test system: Vero
# assay-remarks: Cytotoxicity against […] Vero cells
# Format: cell-based
# test-parameters: Chlorocebus sabaeus
observable: pIC50
# pIC50 = -log10(concentration in molar units)

Sure, the documented pIC50 for O=C1NC(c2c[nH]c3ccc(O)cc23)=C/C1=C1\C(=O)Nc2ccccc21 [VIOLACEIN] is 5.66
